Assay: NCI Yeast Anticancer Drug Screen. Data for the sgs1 mgt1 strain (AID 161);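 note: 0% = growth of cultures given vehicle only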
Details: S. cerevisiae sgs1 mgt1 strain, at 50.0 µM
This is part of a sample that, as a whole, favours compounds with a hit. Of some 79,000 tested, about 15% had one in any assay. Active and inactive are the calls of the source. Cut-off read from the data, not from the text of the source: active = growth inhibition above about 70%; inactive = the rest.
Please reply with one of these outcomes: active, inactive

Solved cases (3 shown):
{"columns": ["compound", "assigned.label"],
 "data": [
  ["COC1CCCC2OC3(OC)C(OC)CCCC3OC12OC (centres undefined)", "inactive"],
  ["CSCC(NP1(=O)SC(NN=C(C)C)=NC1(C)C)C(=O)O (centres undefined)", "inactive"],
  ["CN(C=O)C(=S)[S][Sb]([S]C(=S)N(C)C=O)[S]c1nc2ccc(N=Nc3ccc(NS(=O)(=O)c4ccc(NC(=O)C(N5CC5)(N5CC5)N5CC5)cc4)cc3)cc2s1", "active"]
]}

Could you please tell me the result logged for COc1cc(OC)c(/C=C(\C)[N+](=O)[O-])cc1Br in this assay? active

// param item: CNC(=O)Oc1ccccc1N ; yields the recorded call inactive

Write down the call the test reported for this compound. Item: CC1([N+](=O)[O-])COP(=O)(OP2(=O)OCC(C)([N+](=O)[O-])CO2)OC1 (centres undefined) inactive

Please indicate how the test categorized CCN1C(=O)NC(=O)C(CC)(N2CCCCC2)C1=O (centres undefined) . inactive

What was the test verdict on [Se]=P(N1CCCCC1)(N1CCCCC1)N1CCCCC1 ? inactive

I'd appreciate the recorded outcome for O=C(O)C(Br)C(Br)C(=O)O.[Ag] (centres undefined) from this test. active

* * *

Assay: NCI Yeast Anticancer Drug Screen. Data for the mec2-1 strain (AID 157)
Settings: S. cerevisiae mec2-1 strain, at 50.0 µM (retest, dose inferred, filed as 5.0), hits give high values
Compounds without any hit were thinned out: in the full panel of roughly 79,000, 15% have a hit.
Measured growth inhibition, listed per entry for reference.
Give the value in % but do not write % after it.

Past entries and their recorded results:
{"columns": ["molecule", "property.label", "unit.annotation", "value"],
 "data": [
  ["ClCc1ccncc1", "growth inhibition", "%", 46],
  ["[Cl][Sn]([CH2]c1ccccc1)([CH2]c1ccccc1)[CH2]c1ccccc1", "growth inhibition", "%", 99],
  ["CC(C)(C)S.[Hg]", "growth inhibition", "%", 98]
]}

Data request, read-out growth inhibition, for NCCNCCN1CC1 1

Fill in: growth inhibition of CC1(C)N=C(N)N=C(N)N1c1ccc(OCCCCNC(=O)Nc2ccc(S(=O)(=O)F)cc2)c(Cl)c1 is ___ 97

Quick one: growth inhibition of COC12C(COC(N)=O)C3=C(C(=O)C(C)=C(NC(C)C)C3=O)N1CC1NC12 (configuration not stated) ? 72

Entry CC/C(=C\c1ccc(Cl)c(Cl)c1)[N+](=O)[O-] : reported growth inhibition = ? 100

growth inhibition for CCOC(=O)c1ccc(NP(=O)(Oc2ccccc2)Oc2ccccc2)cc1 ? 75

Would you kindly share the measured growth inhibition for COc1cc2c(cc1OC)C(OC)N(C)c1c-2ccc2cc3c(cc12)OCO3 (configuration not stated) ? 12

Using the record for COc1cc(C(CC(=O)N(CCCl)CCCl)c2ccc3c(c2)OCO3)cc(OC)c1OC (configuration not stated) , report its growth inhibition. -2

Entry Nc1ccc(C(=O)O)c(C(=O)O)c1.[Cl][Sn]([Cl])([Cl])[Cl] : reported growth inhibition = ? 46

For the molecule shown here, COc1cc(N(CC(C)Br)CC(C)Br)ccc1N=Nc1ccccc1C(=O)O (configuration not stated) , give the reported growth inhibition. 95

Quick one: growth inhibition for Nc1nc(N)c(-c2ccc(Cl)c(Cl)c2)c(CCc2ccc(CNC(=O)c3cccc(S(=O)(=O)F)c3)cc2)n1 ? 99
